Values compiled from patent US20260201008A1.

Assign pEC50 hGLPR1 to each entry below.
molecular target: human GLP-1 receptor (hGLP1R) (human, UniProt P43220 24-463); assay: cell-based or functional assay
Numbered stars: 1 amine (or outer) side, 2 acyl side, 3 side chain; on linkers, the order of the positions; unused ones are H or OH. Square brackets hold non-standard residues; d marks the D form. Side chains are listed from the residue outwards. Ends that are not written are not given here. * marks the point of attachment. C20 diacid = O=C(O)CCCCCCCCCCCCCCCCCCC(=O)*; γGlu = O=C(O)[C@H](CCC(=O)[*:2])N[*:1]; AEEA = NCCOCCOCC(=O)O; Aib = CC(C)(N)C(=O)O

- binder: "H[Aib]EGTFTSDVSRLK([AEEA-AEEA-γGlu-C20 diacid])ETAAAQRFLEHLV-NH2 [SEQ ID NO: 23]"
  pEC50 hGLPR1: "10.7 -log M"

Kindly give each listed record's pEC50 hGLPR1.
1. H[Aib]EGTFTSDVSELK([AEEA-AEEA-γGlu-C20 diacid])EFAAEQRFLEHLV-NH2 [SEQ ID NO: 31]
2. H[Aib]EGTFTSDISYLK([AEEA-AEEA-γGlu-C20 diacid])EEA[Aib]LQRFLEHLV-NH2 (also: K14 lipid also given as C18DA[γE][OEG][OEG]-) [SEQ ID NO: 114]
3. H[Aib]EGTFTSDVSYL[Aib]EEA[Aib]LQRFLEKLV-NH2 (not fully specified (residue 25)) [SEQ ID NO: 158]

Key:
10.4 -log M
11 -log M
10.4 -log M

Exercise: What value of pEC50 hGLPR1 has been recorded for this entry: H[Aib]EGTFTSDVSRLK([AEEA-AEEA-γGlu-C20 diacid])EEAAAQRFLEHLV-NH2 [SEQ ID NO: 60]
Key: 10.5 -log M
